# Tested on: MCF7
# assay summary: NCI tumour cell line growth inhibition, 48 h
The source made the active and inactive calls. Rule as the data show it: active = GI50 up to about 1.1 µM and inactive = higher.
Could you please pick one outcome from this set? TRUE for active, FALSE for inactive

Look up the recorded call for O=C(O)Cc1cccc2c1OC(c1ccccc1)C(C(=O)c1ccccc1)C2=O (stereo unspecified) in this test.
FALSE

For c1ccc2sc(C3(N4CCCCC4)CCCCCC3)cc2c1 , what call appears in the results of this test?
FALSE

Record lookup: outcome of this test for N=C(N)Nc1ccc(-c2ccc(NC(=N)N)cc2)cc1 ?
FALSE

What did this assay record as the result for CSc1nc(C)c(CCOC(C)=O)c(N=P(c2ccccc2)(c2ccccc2)c2ccccc2)n1 ?
FALSE

State the result this test recorded for COc1cccc(/C=N/[N+](C)(C)C)c1O .
FALSE

Dear colleague, could you share the recorded outcome for COc1cccc2c1/c(=C/c1ccc(N(C)C)cc1)c1cc(-c3ccccc3)[n+](C)n12 when you have a moment?
TRUE

What classification did N#Cc1ccc(/N=C(/NCC(=O)O)Nc2ccc3ccccc3c2)cc1 end up with in this test?
FALSE

What outcome does the record of this test show for Cc1cc(C)c2c(=N)c3ccccc3n(CCCCCCO)c2n1 ?
FALSE

Could you check what this test reported for O=C(CN1CCCCC1)Nc1ccc2c(c1)C1Oc3ccccc3CC1CO2 (stereo unspecified) ?
FALSE

Called result for COc1ccc2c(c1)-c1nn(CCCN(C)C)c3ccc([N+](=O)[O-])c(c13)N2
TRUE

How was CCOC(=O)NC(=S)NC(C)c1ccccc1 (stereo unspecified) classified in this test?
FALSE

----------
# Test system: HOP-62
# assay summary: NCI tumour cell line growth inhibition, 48 h
Activity calls are given as the source filed them. No stated cut-off is given here; in the data, active = GI50 up to about 1.1 µM and inactive = higher.
value kind: GI50

Could you tell me which GI50 is on file for COc1ccc(Cc2nc3ccccc3s2)cc1OC ?
29.6 µM (inactive)

Look up GI50 for this compound: CCCC(=O)n1[nH]c(=O)n(C(C)(C)C)c1=O
> 100 µM (inactive)

Which GI50 value belongs to Cc1cccc(Nc2nn3c(=O)c4c5c(sc4nc3s2)CCCC5)c1 ?
28.4 µM (inactive)

Reported GI50, compound COC(=O)/C(=C/c1ccc(OC)cc1)C(C(=O)O)=C1CCCCC1 : ____
> 100 µM (inactive)

# input compound: CC(C)c1cc(OCC(O)CO)cc(C(C)C)c1 (stereo unspecified) ; wanted: its GI50
> 100 µM (inactive)

# query: GI50 of entry CCOP(=O)(CN1CCNCCNCC1)OCC
> 100 µM (inactive)

----------
Please respond with reported GI50 for every item in the list.
# System: IGROV-1
# assay summary: NCI tumour cell line growth inhibition, 48 h
Active and inactive are the calls of the source. No stated cut-off is given here; in the data, active = GI50 up to about 1.1 µM and inactive = higher.

Please give the measured GI50 for this compound: COC1CC(C)([N+](=O)[O-])C(O)C(C)O1 (stereo unspecified)
> 100 µM (inactive)

Given the entry CN(C)c1cccc2c(S(=O)(=O)NCCN)cccc12 , report its measured GI50.
33.7 µM (inactive)

I am curious: what GI50 value has been reported for CN(C)CCNC(=O)Cc1ccccc1Nc1c(Cl)cccc1Cl ?
19.1 µM (inactive)

Find the recorded GI50 belonging to Cc1ccc(S(=O)(=O)N/N=C2/CCC(C(C)(C)C)CC2Br)cc1 (stereo unspecified) and report it.
38.6 µM (inactive)

Any idea what its GI50 is? The compound is COC(=O)/C=C1/OC(c2ccc(Br)cc2)=C(Br)C1=O
6.34 µM (inactive)

Which GI50 reading was recorded for the compound CN(C)/C=N\c1cc[nH]c(=O)n1 ?
> 100 µM (inactive)

Name the reported GI50 value associated with the compound CCOC(=O)C(=O)Nc1c(N(CC)CC)n2ccccc2nc1=O
> 100 µM (inactive)

Could you tell me which GI50 is on file for CCCC(CC)c1c(O)c(O)c(C(CC)CCC)c(C(CC)CCC)c1C(CC)CCC (stereo unspecified) ?
> 10 µM (inactive)

What value of measured GI50 is listed for CC(=O)O[C@H]1CCC2[C@@H]3CCC4NC(=O)C(C#N)C[C@]4(C)C3CC[C@@]21C (stereo partly specified) ?
> 10 µM (inactive)

What does the record list as GI50 for COC(=O)c1cc(OC)c(OC)c(OC)c1-c1cc2c(cc1C=O)OCO2 ?
> 10 µM (inactive)

Form field: reported GI50 of Cc1cc(SCC(=O)c2ccc(Br)cc2)cc(C)[o+]1
37.4 µM (inactive)
